Cited source for all entries: patent US8022206B2

molecular target: MET (human) (Homo sapiens); assay: MET (human) AlphaScreen kinase assay, Km of ATP; type: biochemical; details: AlphaScreen, Km of ATP; read-out: Met biochemical IC50
pIC50: −log10 of the molar value.
Quantity name: pIC50

Ask | # get_value(readout='pIC50', item= C[C@@H](Oc1c(N)ncc2c(C3=CCN(C(=O)[C@H](N)CO)CC3)coc12)c1c(Cl)ccc(F)c1Cl [Example 255] )
Reply | > 6.30

Ask | # get_value(readout='pIC50', item= C[C@@H](Oc1c(N)ncc2c(-c3cnn(C4CCNCC4)c3)coc12)c1ccncc1 [Example 397] )
Reply | 5.30 to 6.30

Ask | # get_value(readout='pIC50', item= C[C@@H](Oc1c(N)ncc2c(-c3cc(C(=O)N(C)C)cs3)coc12)c1c(Cl)ccc(F)c1Cl [Example 328] )
Reply | 5.30 to 6.30

Ask | # get_value(readout='pIC50', item= C[C@@H](Oc1c(N)ncc2c(-c3cnn(C4CCNCC4)c3)c(C#N)oc12)c1c(Cl)ccc(F)c1Cl [Example 169] )
Reply | 5.30 to 6.30

Ask | # get_value(readout='pIC50', item= Cc1csc(-c2coc3c(O[C@H](C)c4c(Cl)ccc(F)c4Cl)c(N)ncc23)c1 [Example 115] )
Reply | 5.30 to 6.30

Ask | # get_value(readout='pIC50', item= Cc1cccc(Cl)c1C(C)Oc1c(N)ncc2c(-c3cnn(C4CCNCC4)c3)coc12 (centres unmarked) [Example 375] )
Reply | > 6.30

Ask | # get_value(readout='pIC50', item= C[C@@H](Oc1c(N)ncc2c(-c3cnn(C)c3)coc12)c1c(Cl)ccc(F)c1Cl [Example 4] )
Reply | 5.30 to 6.30

Ask | # get_value(readout='pIC50', item= CC(Cc1ccccc1)Oc1c(N)ncc2c(-c3cnn(C4CCNCC4)c3)coc12 (centres unmarked) [Example 405] )
Reply | > 6.30

* * *

molecular target: MET (human) (Homo sapiens, UniProt P08581); test: MET (human) AlphaScreen kinase assay, Km of ATP; format: biochemical; conditions: AlphaScreen, Km of ATP; read-out: Met biochemical IC50
Sequence (P08581 25-1390): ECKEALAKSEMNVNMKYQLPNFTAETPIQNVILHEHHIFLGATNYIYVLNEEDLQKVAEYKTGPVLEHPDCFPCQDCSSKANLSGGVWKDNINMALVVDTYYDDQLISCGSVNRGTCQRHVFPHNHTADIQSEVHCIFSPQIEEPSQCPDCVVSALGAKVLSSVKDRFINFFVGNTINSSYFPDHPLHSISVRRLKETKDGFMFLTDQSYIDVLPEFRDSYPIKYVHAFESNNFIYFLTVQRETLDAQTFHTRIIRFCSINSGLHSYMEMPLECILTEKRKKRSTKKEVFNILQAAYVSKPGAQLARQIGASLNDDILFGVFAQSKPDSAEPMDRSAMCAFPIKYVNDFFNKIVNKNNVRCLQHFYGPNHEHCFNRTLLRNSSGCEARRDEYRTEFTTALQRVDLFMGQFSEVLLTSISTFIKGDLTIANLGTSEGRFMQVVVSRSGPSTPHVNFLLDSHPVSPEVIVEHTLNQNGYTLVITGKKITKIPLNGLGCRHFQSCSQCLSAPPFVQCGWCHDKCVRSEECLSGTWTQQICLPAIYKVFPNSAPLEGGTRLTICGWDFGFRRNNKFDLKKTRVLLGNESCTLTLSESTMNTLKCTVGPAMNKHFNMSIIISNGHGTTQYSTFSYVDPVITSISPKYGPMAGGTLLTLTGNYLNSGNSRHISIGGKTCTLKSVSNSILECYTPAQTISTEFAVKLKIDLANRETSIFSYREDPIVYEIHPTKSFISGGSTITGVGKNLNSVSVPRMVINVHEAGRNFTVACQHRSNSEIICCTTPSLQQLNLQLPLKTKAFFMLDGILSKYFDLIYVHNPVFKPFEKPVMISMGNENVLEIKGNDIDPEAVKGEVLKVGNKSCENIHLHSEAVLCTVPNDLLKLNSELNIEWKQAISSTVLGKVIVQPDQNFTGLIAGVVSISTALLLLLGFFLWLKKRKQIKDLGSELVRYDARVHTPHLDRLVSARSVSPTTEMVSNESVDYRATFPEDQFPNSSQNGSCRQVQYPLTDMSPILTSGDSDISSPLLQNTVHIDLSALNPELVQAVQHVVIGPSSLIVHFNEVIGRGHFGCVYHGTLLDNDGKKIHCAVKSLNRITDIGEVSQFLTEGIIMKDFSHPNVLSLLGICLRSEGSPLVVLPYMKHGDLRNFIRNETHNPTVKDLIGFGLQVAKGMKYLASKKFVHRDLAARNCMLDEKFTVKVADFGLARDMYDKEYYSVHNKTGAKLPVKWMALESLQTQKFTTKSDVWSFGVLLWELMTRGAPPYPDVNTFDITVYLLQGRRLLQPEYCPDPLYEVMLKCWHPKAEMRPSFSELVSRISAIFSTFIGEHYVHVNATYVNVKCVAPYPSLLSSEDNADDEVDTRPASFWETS
pIC50: −log10 of the molar value.
Assignment: determine reported pIC50 for the given molecules.

Ask | # get_value(readout='pIC50', item= C[C@@H](Oc1c(N)ncc2c(C3=CCN(C(=O)[C@H](N)c4ccccc4)CC3)coc12)c1c(Cl)ccc(F)c1Cl [Example 262] )
Reply | > 6.30

Ask | # get_value(readout='pIC50', item= CCCCS(=O)(=O)Nc1cccc(-c2coc3c(O[C@H](C)c4c(Cl)ccc(F)c4Cl)c(N)ncc23)c1 [Example 246] )
Reply | 5.30 to 6.30

Ask | # get_value(readout='pIC50', item= C[C@@H](Oc1c(N)ncc2c(-c3cc(C(N)=O)cs3)coc12)c1c(Cl)ccc(F)c1Cl [Example 326] )
Reply | 5.30 to 6.30

Ask | # get_value(readout='pIC50', item= CC(O)C(=O)N1CC=C(c2coc3c(O[C@H](C)c4c(Cl)ccc(F)c4Cl)c(N)ncc23)CC1 (stereo partly shown) [Example 229] )
Reply | > 6.30

* * *

Assignment: determine reported pIC50 for the given compounds.
biological target: MET (human) (Homo sapiens, UniProt P08581); assay: MET (human) AlphaScreen kinase assay, Km of ATP; type: biochemical; conditions: AlphaScreen, Km of ATP; read-out: Met biochemical IC50
pIC50: −log10 of the molar value.

Ask | # get_value(readout='pIC50', item= C[C@@H](Oc1c(N)ncc2c(C3=CCN(C(=O)CN)CC3)coc12)c1c(Cl)ccc(F)c1Cl )
Reply | > 6.30

Ask | # get_value(readout='pIC50', item= CC(Cc1c(F)cccc1C(F)(F)F)Oc1c(N)ncc2c(-c3cnn(C4CCNCC4)c3)coc12 (stereo not drawn) )
Reply | > 6.30

Ask | # get_value(readout='pIC50', item= Nc1ncc2c(-c3cnn(C4CCNCC4)c3)coc2c1O[C@H](c1ccccc1)C(F)(F)F )
Reply | > 6.30

Ask | # get_value(readout='pIC50', item= C[C@@H](Oc1c(N)ncc2c(-c3ccc(CN(C)C)s3)coc12)c1c(Cl)ccc(F)c1Cl )
Reply | > 6.30

Ask | # get_value(readout='pIC50', item= C[C@@H](Oc1c(N)ncc2c(C3=CCN(C(=O)[C@@H]4CCCCN4)CC3)coc12)c1c(Cl)ccc(F)c1Cl )
Reply | > 6.30

Ask | # get_value(readout='pIC50', item= C[C@@H](Oc1c(N)ncc2c(-c3cccc(C(=O)N4CCN(C)CC4)c3)coc12)c1c(Cl)ccc(F)c1Cl )
Reply | > 6.30

Ask | # get_value(readout='pIC50', item= CC(Oc1c(N)ncc2c(-c3cnn(C4CCNCC4)c3)coc12)c1c(Cl)c(F)cc(OC2CCNCC2)c1Cl (stereo not drawn) )
Reply | > 6.30

Ask | # get_value(readout='pIC50', item= CC(C)[C@@H](O)C(=O)N1CC=C(c2coc3c(O[C@H](C)c4c(Cl)ccc(F)c4Cl)c(N)ncc23)CC1 )
Reply | 5.30 to 6.30

Ask | # get_value(readout='pIC50', item= Cc1ccccc1C(C)Oc1c(N)ncc2c(-c3cnn(C4CCNCC4)c3)coc12 (stereo not drawn) )
Reply | > 6.30

Ask | # get_value(readout='pIC50', item= C[C@@H](Oc1c(N)ncc2c(C3=CC4CCC(C3)N4C)coc12)c1c(Cl)ccc(F)c1Cl (stereo partly drawn) )
Reply | > 6.30

Ask | # get_value(readout='pIC50', item= C[C@@H](Oc1c(N)ncc2c(-c3ccc(C(=O)NCCO)cc3)coc12)c1c(Cl)ccc(F)c1Cl )
Reply | 5.30 to 6.30

Ask | # get_value(readout='pIC50', item= C[C@@H](Oc1c(N)ncc2c(C3=CCN(C(=O)C4(N)CC4)CC3)coc12)c1c(Cl)ccc(F)c1Cl )
Reply | 5.30 to 6.30

Ask | # get_value(readout='pIC50', item= C[C@@H](Oc1c(N)ncc2c(-c3csc(C(=O)O)c3)coc12)c1c(Cl)ccc(F)c1Cl )
Reply | > 6.30

Ask | # get_value(readout='pIC50', item= CC(Oc1c(N)ncc2c(-c3cnn(C4CCNCC4)c3)coc12)c1nc2ccccc2[nH]1 (stereo not drawn) )
Reply | 5.30 to 6.30

Ask | # get_value(readout='pIC50', item= C[C@H](Oc1c(N)ncc2c(-c3cnn(C4CCNCC4)c3)coc12)c1nnc2ccc(-c3ccccc3)nn12 )
Reply | 5.30 to 6.30
